Provide the recorded GI50 for the entries that follow.
System: SNB-19
assay-procedure: NCI tumour cell line growth inhibition, 48 h
Activity calls are given as the source filed them. No stated cut-off is given here; in the data, active = GI50 up to about 1.1 µM and inactive = higher.

For orientation, consider the following solved cases.
> print(dat)
                                   compound  target               result
1  COC(=O)N[C@H](C(=O)NC(OCc1ccccc1)C1COC(C)(C)O1)C(C)O[Si](C)(C)C(C)(C)C (stereo partly specified)  SNB-19  > 100 µM (inactive)
2  C#CCN(Cc1ccc2nc(-c3ccccc3)c(Cl)nc2c1)c1ccc(F)cc1  SNB-19  > 100 µM (inactive)
3  CCOC(=O)C1=C(C)N(c2ccc(C)cc2)C2=C(C(=O)N(c3ccccc3)C2c2ccccc2)C1c1ccccc1 (stereo unspecified)  SNB-19   > 25 µM (inactive)
4  CSc1cc(Cl)c(C)cc1S(=O)(=O)NC(=O)NNc1ccccn1  SNB-19  > 100 µM (inactive)
5  Clc1ccc(Oc2ccc(/N=C/c3ccc(Cl)cc3Cl)cc2Cl)cc1  SNB-19   41.6 µM (inactive)

Below are 6 compounds. Give each one its GI50.
1. O=C(OCc1ccccc1)c1ccc(NCc2cc(O)ccc2O)cc1
2. O=C1NC(=O)C2C(=O)NC(=O)C1C2c1c(Cl)cccc1Cl (stereo unspecified)
3. CCOC(=O)CC(C)C1(C(=O)OCC)CCCCC1=O (stereo unspecified)
4. COC(=O)C12C3C4C1C1C2C3C41C(=O)O (stereo unspecified)
5. C#CCC(O)c1ccc(OC)c(OCc2ccccc2)c1 (stereo unspecified)
6. O=C(C(=C(I)I)c1ccccc1)c1ccccc1

A:
1. 2.85 µM (inactive)
2. > 100 µM (inactive)
3. > 100 µM (inactive)
4. > 100 µM (inactive)
5. > 100 µM (inactive)
6. 29.9 µM (inactive)
